FYI, the data here is from PubChem BioAssay (NCI).

system: SK-MEL-28 melanoma; assay: NCI-60 one-dose screen, 48 h (100 = growth as untreated, 0 = no growth, -100 = all killed); details: 10 µM unless noted
About 83,000 compounds went through this panel and 20% of them were active in at least one assay; those are over-represented in the sample as a whole.
Readout type: growth (%)
Quick note: give the figure in %, leave out the unit.

Specify measured growth for Cc1cc(NC(=O)Nc2cccc3ccccc23)no1 . 116

Specify measured growth for O=C(C(=O)N1CCOCC1)c1ccc(OC2OC(CO)C(O)C(O)C2O)cc1 (configuration not stated) . 105

Specify measured growth for O=C(C(Br)Br)C(Br)C(Br)c1ccccc1 (configuration not stated) . 106

Specify measured growth for COc1cc(-c2cc(C(=O)Nc3nc4ccccc4s3)nc3cc(-c4ccccc4)nn23)cc(OC)c1OC . 39.9

Specify measured growth for COc1ccc2c(c1)nc(N)c1c3cc(OC)c(OC)cc3cn21 . 57.5

Specify measured growth for CCCCC1Nc2nc(SC)n(C)c(=O)c2CN(Cc2ccccc2)C1=O (configuration not stated) . 122

Specify measured growth for Oc1ccc(Cc2ccc(O)c(C3CC(c4ccc(Cl)cc4)=NN3)c2)cc1C1CC(c2ccc(Cl)cc2)=NN1 (configuration not stated) . 57.7

Specify measured growth for Cc1ccc([N+](=O)[O-])cc1NC(=O)Nc1cccc(F)c1 . 108

Specify measured growth for O=C(/C=C/c1cc2ccccc2[nH]c1=O)c1ccc(Cl)cc1 . 80.1

Specify measured growth for CN(C)c1ccc(/C=C\c2ccnc3ccccc23)cc1 . 88.7

Specify measured growth for O=[P@@]1(c2ccccc2)O[C@H](COCc2ccccc2)[C@@H](OCc2ccccc2)[C@H](OCc2ccccc2)[C@H]1NCc1ccccc1 . 49.2

Specify measured growth for Nc1nc2ncc(CCNc3ccc(C(=O)NC(CCC(=O)O)C(=O)O)cc3)nc2c(=O)[nH]1 (configuration not stated) . 125

Specify measured growth for O=C(/C=C/c1ccccc1Cl)c1ccc(O)cc1 . 96.1

Specify measured growth for C[n+]1c2ccccc2c(NC2CCNCC2)c2[nH]c3ccccc3c21 . 10.6

Specify measured growth for C[N+]1(CCc2ccccc2)CCC(CCC2CC[N+](C)(CCc3ccccc3)CC2)CC1 (configuration not stated) . 111

Specify measured growth for COc1ccc(OC)c(NC(=O)c2cc3oc4ccccc4c3cc2O)c1 . 101

Specify measured growth for CCCCN(CCCC)CCCOC(=O)c1ccc(N)cc1 . 57.5

Specify measured growth for COc1ccc(-c2c3c(nn2-c2ccc(N)cc2)CCc2cnoc2-3)cc1OC . 116

Specify measured growth for Clc1ccc(-n2cnc3c(Cl)ncnc32)cc1Cl . 64.1

Specify measured growth for COc1ccc2c(c1)[nH]c(=O)c1c3cc(OC)c(OC)cc3cn21 . 61.1

Specify measured growth for Cc1ccc(C(C)C)cc1NC(=O)Nc1ccc([N+](=O)[O-])cc1 . 22.4

Specify measured growth for CC(=O)c1nc2ccccc2n1CCn1cc(CC(N)C(=O)O)c2ccccc21 (configuration not stated) . 109

###

I'd be grateful if you could share measured growth for these entries.
tested on: OVCAR-5 ovarian; test: NCI-60 one-dose screen, 48 h (100 = growth as untreated, 0 = no growth, -100 = all killed); conditions: 10 µM unless noted
The panel holds about 83,000 compounds, 20% with a hit somewhere; the sample as a whole holds those more often. Activity calls are given as the source filed them. How the source made its calls: active means growth percent below 10; inactive means the rest.

Specify measured growth for COc1ccc(-c2nn(-c3ccccc3)cc2/C=C2\SC(=S)N(CCc3ccc(O)cc3)C2=O)cc1 . 99.7% (inactive)

Specify measured growth for O=C(CSc1nc2c(n1Nc1ccccc1)-c1ccccc1SC2)Nc1nc(-c2ccc(Cl)cc2)cs1 . 93.6% (inactive)

Specify measured growth for O=C(O)C(=O)O . 56.8% (inactive)

Specify measured growth for CCOc1ccccc1C(=O)OCC(=O)Nc1cccc(S(=O)(=O)N(C)C)c1 . 94.9% (inactive)

Specify measured growth for O=C(NCCCO)c1cc(Cl)ccc1O . 45% (inactive)

Specify measured growth for CC(C)C/C(=N\NC(=O)c1ccncc1)c1cc(Cl)ccc1O . 37.3% (inactive)

Specify measured growth for C[n+]1c2ccccc2c(Nc2ccc(N3CCCCC3)cc2)c2[nH]c3ccccc3c21 . -86.2% (active)

Specify measured growth for COc1cc(C2=NN(C(C)=O)C(c3ccc(OC(C)=O)cc3OC(C)=O)O2)c(OC(C)=O)c2ccccc12 (stereo unspecified) . 54% (inactive)

Specify measured growth for [O-]/[N+](=C\C=C\c1ccccc1)c1ccccc1 . 107% (inactive)

Specify measured growth for Cc1ccc(C(O)C2=CC(=O)c3ccccc3C2=O)cc1 (stereo unspecified) . 95.4% (inactive)

Specify measured growth for CCCCCCCCCCSc1ncnc2nc[nH]c12 . 101% (inactive)
